- protocol.summary: Bidirectional transport of API and TMS-NLCs across cell monolayers
- Type: in vitro ADME, canine
- measurement.context: dog; MDCK; without verapamil; 10 µg/mL, 4 h, 37 °C
measurement.label: Papp A→B at 4 h, 10 µg/mL (×10⁻⁶ cm/s)
Output spec: scalar in ×10⁻⁶ cm/s, unitless text.

Please look up its Papp A→B at 4 h, 10 µg/mL: CC[C@H]1OC(=O)C[C@@H](O)[C@H](C)[C@@H](O[C@@H]2O[C@H](C)[C@@H](O)[C@H](N(C)C)[C@H]2O)[C@@H](CCN2C[C@H](C)C[C@H](C)C2)C[C@@H](C)C(=O)/C=C/C(C)=C/[C@@H]1CO[C@@H]1O[C@H](C)[C@@H](O)[C@@H](OC)[C@H]1OC
0.42

---

- System: chAbcg2/Abcb1 (P-gp)
- protocol.summary: Bidirectional transport of API and TMS-NLCs across cell monolayers
- Format: in vitro ADME, canine
- measurement.context: dog; MDCK-chAbcg2/Abcb1; with verapamil (100 µM); 10 µg/mL, 4 h, 37 °C
measurement.label: Papp A→B at 4 h, 10 µg/mL (×10⁻⁶ cm/s)
Output spec: scalar in ×10⁻⁶ cm/s, unitless text.

Please look up its Papp A→B at 4 h, 10 µg/mL: CC[C@H]1OC(=O)C[C@@H](O)[C@H](C)[C@@H](O[C@@H]2O[C@H](C)[C@@H](O)[C@H](N(C)C)[C@H]2O)[C@@H](CCN2C[C@H](C)C[C@H](C)C2)C[C@@H](C)C(=O)/C=C/C(C)=C/[C@@H]1CO[C@@H]1O[C@H](C)[C@@H](O)[C@@H](OC)[C@H]1OC
0.39

---

- protocol.summary: Bidirectional transport of API and TMS-NLCs across cell monolayers
- Format: in vitro ADME, canine
- measurement.context: dog; MDCK; with verapamil (100 µM); read-out: ER
measurement.label: efflux ratio at 4 h, 10 µg/mL
Please reply with the value in numeric form only.

Please look up its efflux ratio at 4 h, 10 µg/mL: CC[C@H]1OC(=O)C[C@@H](O)[C@H](C)[C@@H](O[C@@H]2O[C@H](C)[C@@H](O)[C@H](N(C)C)[C@H]2O)[C@@H](CCN2C[C@H](C)C[C@H](C)C2)C[C@@H](C)C(=O)/C=C/C(C)=C/[C@@H]1CO[C@@H]1O[C@H](C)[C@@H](O)[C@@H](OC)[C@H]1OC
1.06

---

- System: chAbcg2/Abcb1 (P-gp)
- protocol.summary: Bidirectional transport of API and TMS-NLCs across cell monolayers
- Type: in vitro ADME, canine
- measurement.context: dog; MDCK-chAbcg2/Abcb1; without verapamil; read-out: ER
measurement.label: efflux ratio at 4 h, 10 µg/mL
Please reply with the value in numeric form only.

Please look up its efflux ratio at 4 h, 10 µg/mL: CC[C@H]1OC(=O)C[C@@H](O)[C@H](C)[C@@H](O[C@@H]2O[C@H](C)[C@@H](O)[C@H](N(C)C)[C@H]2O)[C@@H](CCN2C[C@H](C)C[C@H](C)C2)C[C@@H](C)C(=O)/C=C/C(C)=C/[C@@H]1CO[C@@H]1O[C@H](C)[C@@H](O)[C@@H](OC)[C@H]1OC
2.63

---

- protocol.summary: Permeability of cell monolayers (tracers)
- Type: in vitro ADME, canine
- measurement.context: dog, MDCK-chAbcg2/Abcb1, AP to BL, 37 °C, lucifer yellow 225 µM, propranolol 100 µM
Where a name gives a salt, the structure may show the parent alone.
measurement.label: Papp at 4 h, 100 µM (×10⁻⁶ cm/s)
Output spec: scalar in ×10⁻⁶ cm/s, unitless text.

Please look up its Papp at 4 h, 100 µM: CC(C)NCC(O)COc1cccc2ccccc12 (stereo not shown) [Propranolol, propranolol hydrochloride]
17.6

---

- System: chAbcg2/Abcb1 (P-gp)
- protocol.summary: Bidirectional transport of API and TMS-NLCs across cell monolayers
- Format: in vitro ADME, canine
- measurement.context: dog; MDCK-chAbcg2/Abcb1; with verapamil (100 µM); read-out: ER
measurement.label: efflux ratio at 4 h, 10 µg/mL
Please reply with the value in numeric form only.

Give chAbcg2/Abcb1 (P-gp) efflux ratio at 4 h, 10 µg/mL for CC[C@H]1OC(=O)C[C@@H](O)[C@H](C)[C@@H](O[C@@H]2O[C@H](C)[C@@H](O)[C@H](N(C)C)[C@H]2O)[C@@H](CCN2C[C@H](C)C[C@H](C)C2)C[C@@H](C)C(=O)/C=C/C(C)=C/[C@@H]1CO[C@@H]1O[C@H](C)[C@@H](O)[C@@H](OC)[C@H]1OC
1

---

- Tested on: chAbcg2/Abcb1 (P-gp)
- protocol.summary: Bidirectional transport of API and TMS-NLCs across cell monolayers
- Type: in vitro ADME, canine
- measurement.context: dog; MDCK-chAbcg2/Abcb1; with verapamil (100 µM); 10 µg/mL, 4 h, 37 °C
measurement.label: Papp B→A at 4 h, 10 µg/mL (×10⁻⁶ cm/s)
Output spec: scalar in ×10⁻⁶ cm/s, unitless text.

Please look up its Papp B→A at 4 h, 10 µg/mL: CC[C@H]1OC(=O)C[C@@H](O)[C@H](C)[C@@H](O[C@@H]2O[C@H](C)[C@@H](O)[C@H](N(C)C)[C@H]2O)[C@@H](CCN2C[C@H](C)C[C@H](C)C2)C[C@@H](C)C(=O)/C=C/C(C)=C/[C@@H]1CO[C@@H]1O[C@H](C)[C@@H](O)[C@@H](OC)[C@H]1OC
0.39
